# Tested on: Fibroblast
# test summary: Multiplex assay against human fibroblast
# Type: toxicity, cell-based
# applied conditions: 24 h, 10 µM, compound concentration 10 uM, replicate 2
recorded endpoint: Population Membrane Permeable-Phenotype (%)
Could you give me the number in %? Just the number is fine.

Which Population Membrane Permeable-Phenotype (%) value is on record for CN1CCCC(n2nc(Cc3ccc(Cl)cc3)c3ccccc3c2=O)CC1.Cl (configuration not stated) [AZELASTINE HYDROCHLORIDE] ? 98

Further, for OC1(c2ccc(Cl)cc2)CCN(Cc2c[nH]c3ccccc23)CC1 ? 5

# repeat for C[C@@H](NCCCc1cccc(C(F)(F)F)c1)c1cccc2ccccc12.Cl [CINACALCET HYDROCHLORIDE] 52

Request: Cc1nc(-c2ccc(-c3ccc(C(=O)N4CCc5cc6c(cc54)C4(CCN(C)CC4)CO6)cc3)c(C)c2)no1 86

What do we get for O=C1NCN(c2ccccc2)C12CCN(CCCOc1ccc(F)cc1)CC2 [SPIRAMIDE] ? 2

What do we get for CN1CCN(CCOc2cc(OC3CCOCC3)c3c(Nc4c(Cl)ccc5c4OCO5)ncnc3c2)CC1 ? 21

Request: COc1cccc([C@@H](C)NCCCc2ccccc2Cl)c1.Cl [TECALCET HYDROCHLORIDE] 24

Another compound to check: CN1CCN(c2ccc(OC(F)(F)F)c(Nc3ncc4c(n3)-c3c(c(C(N)=O)nn3CCO)CC4)c2)CC1 5

Then CCN(CC)CCCCNc1ncc2cc(-c3cc(OC)cc(OC)c3)c(NC(=O)NC(C)(C)C)nc2n1 ? 28

Query NC(=O)Nc1cc(-c2cccc(F)c2)sc1C(=O)N[C@H]1CCCNC1 next 100

Try C=CC(=O)Nc1ccc2ncnc(Nc3ccc(OCc4cccc(F)c4)c(Cl)c3)c2c1.Cc1ccc(S(=O)(=O)O)cc1 next. 14

What do we get for CNc1nc(NCc2ccc(NS(C)(=O)=O)cc2Cl)cc(-c2ccccn2)n1 ? 4

Continue with Cn1cc(-c2[nH]c3cc(NC(=O)[C@H](N)C4CCCCC4)cc4c3c2C=NNC4=O)cn1 44

Try this compound too: CC(C)NCC(O)COc1ccc(CCOCC2CC2)cc1.Cl (configuration not stated) [BETAXOLOL HYDROCHLORIDE] 5

Try this compound too: Cc1cc(C)cc(-c2cnc3cc(Cl)c(-c4cccc(O)c4)cc3c2OCCCN)c1 50

Same thing, different compound: CN1CCC[C@@H]1CCO[C@](C)(c1ccccc1)c1ccc(Cl)cc1.O=C(O)/C=C/C(=O)O [CLEMASTINE FUMARATE] 26

Do the same for C=CC(=O)Nc1cccc(C(=O)Nc2ccc(Nc3cc(-c4[nH]c(SC)nc4C)ccn3)cc2)c1 please 8

Where these numbers come from: ChEMBL document CHEMBL4689842
